Attribution: paper PMC8284461

- Test system: M. abscessus subsp. abscessus K21
- assay_protocol: MIC, broth microdilution
- Type: cell-based, Mycobacterium abscessus
- run_parameters: Mycobacteroides abscessus, 72 h, 90% growth inhibition, 3 days
value_kind: MIC (µM)
Kindly answer with a numeric value in µM, unit omitted.

Some molecules with known MIC results, for comparison:
COc1ccc2nccc(NC(=O)C3CCN(CCc4ccc(Cl)cc4)CC3)c2n1 [compound 844] | 14
COc1ccc2nccc(NC(=O)C3CCN(CCc4ccc(C(F)(F)F)cc4)CC3)c2n1 [844-TFM] | 3.5
COc1c(N2C[C@@H]3CCCN[C@@H]3C2)c(F)cc2c(=O)c(C(=O)O)cn(C3CC3)c12 [MXF, moxifloxacin] | 3
CCNC(=O)Nc1nc2cc(-c3cnc(C(C)(C)O)nc3)c(F)c([C@H]3CCCO3)c2[nH]1 [SPR719] | 1.5

Entry CC[C@H]1OC(=O)[C@H](C)[C@@H](O[C@H]2C[C@@](C)(OC)[C@@H](O)[C@H](C)O2)[C@H](C)[C@@H](O[C@@H]2O[C@H](C)C[C@H](N(C)C)[C@H]2O)[C@](C)(OC)C[C@@H](C)C(=O)[C@H](C)[C@@H](O)[C@]1(C)O [CLR, clarithromycin] : MIC on M. abscessus subsp. abscessus K21 = 0.6
